Measured PBM E-score by item
- ASSAY_TARGET: Ylr278c (UniProt Q05854)
- Sequence (Q05854 whole entry): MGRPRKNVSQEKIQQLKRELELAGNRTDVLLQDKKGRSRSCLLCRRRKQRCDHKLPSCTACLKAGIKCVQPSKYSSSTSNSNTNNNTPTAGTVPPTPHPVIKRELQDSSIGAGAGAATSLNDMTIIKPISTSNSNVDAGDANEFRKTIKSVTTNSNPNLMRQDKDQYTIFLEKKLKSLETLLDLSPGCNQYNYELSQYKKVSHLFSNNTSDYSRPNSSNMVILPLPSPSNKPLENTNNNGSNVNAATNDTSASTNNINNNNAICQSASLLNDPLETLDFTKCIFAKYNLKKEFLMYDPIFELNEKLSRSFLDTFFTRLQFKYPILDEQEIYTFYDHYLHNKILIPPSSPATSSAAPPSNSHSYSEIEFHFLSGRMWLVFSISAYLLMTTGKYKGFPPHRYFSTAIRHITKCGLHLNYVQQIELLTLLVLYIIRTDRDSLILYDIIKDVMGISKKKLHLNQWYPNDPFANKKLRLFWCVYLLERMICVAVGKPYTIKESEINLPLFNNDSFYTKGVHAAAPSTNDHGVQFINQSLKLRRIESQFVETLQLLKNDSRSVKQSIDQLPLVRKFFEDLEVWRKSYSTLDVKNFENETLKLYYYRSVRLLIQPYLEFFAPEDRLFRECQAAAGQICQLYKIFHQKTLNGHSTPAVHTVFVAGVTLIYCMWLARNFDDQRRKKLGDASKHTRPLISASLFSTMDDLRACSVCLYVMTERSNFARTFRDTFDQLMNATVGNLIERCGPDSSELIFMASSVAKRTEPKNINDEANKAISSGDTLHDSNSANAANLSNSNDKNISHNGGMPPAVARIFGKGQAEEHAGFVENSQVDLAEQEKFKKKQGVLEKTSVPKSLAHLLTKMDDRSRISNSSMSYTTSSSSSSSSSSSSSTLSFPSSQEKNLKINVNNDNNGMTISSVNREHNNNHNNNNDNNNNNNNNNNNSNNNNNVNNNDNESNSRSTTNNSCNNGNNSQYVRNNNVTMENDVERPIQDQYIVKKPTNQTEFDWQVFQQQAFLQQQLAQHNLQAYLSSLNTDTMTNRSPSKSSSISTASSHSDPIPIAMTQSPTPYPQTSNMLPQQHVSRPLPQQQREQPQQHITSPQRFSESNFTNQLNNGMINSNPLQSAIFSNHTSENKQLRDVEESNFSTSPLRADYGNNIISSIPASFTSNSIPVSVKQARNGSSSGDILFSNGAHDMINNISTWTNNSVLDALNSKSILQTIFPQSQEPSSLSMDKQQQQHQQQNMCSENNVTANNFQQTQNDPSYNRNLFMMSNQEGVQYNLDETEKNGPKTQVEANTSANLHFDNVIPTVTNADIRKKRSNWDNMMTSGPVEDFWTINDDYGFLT
- ASSAY_NOTES: PBM E-score (8-mer binding enrichment) (E-score (-0.5 to 0.5)); higher = stronger / more preferred TF binding
- CONDITIONS_USED: protein concentration: 200 nM; construct: GST-DNA-binding domain
Whole data set: some 33,000 sequences, median “E-score (-0.5 to 0.5)” near -0.054, cut for the highest 2% near 0.39. What follows is part of a selection rich in the highest values, with near analogues and random picks from the rest.
The response must contain the number and no unit.

Solved entries:
1) CTCAGCCA: -0.0917
2) CAATCGGC: 0.129
3) AGTGAGGA: -0.255
4) GAATCGCA: -0.0817
5) CATTGAGA: -0.119
6) ATTCCGTC: 0.362

// switching to the query sequence
Q: Fill blank: measured PBM E-score of the sequence GAATCGGA is ____.
Ans: 0.409

###

- ASSAY_TARGET: Ylr278c (UniProt Q05854)
- ASSAY_NOTES: PBM E-score (8-mer binding enrichment) (E-score (-0.5 to 0.5)); higher = stronger / more preferred TF binding
- CONDITIONS_USED: protein concentration: 200 nM; construct: GST-DNA-binding domain
Over roughly 33,000 sequences, “E-score (-0.5 to 0.5)” has its median near -0.054; the highest 2% begin near 0.39. This is one part of a sample in which the highest values are shown more often than they occur.
Range-based classes on measured PBM E-score: Low (below -0.04), Medium (-0.04 to below 0.4), High (0.4 or more)

Q: Determine which band this sequence sits in: AACTTCCG
Ans: High

###

- ASSAY_TARGET: Ylr278c (UniProt Q05854)
- ASSAY_NOTES: PBM E-score (8-mer binding enrichment) (E-score (-0.5 to 0.5)); higher = stronger / more preferred TF binding
- CONDITIONS_USED: protein concentration: 200 nM; construct: GST-DNA-binding domain
In all, about 33,000 sequences were measured (“E-score (-0.5 to 0.5)”: median about -0.054, highest 2% from about 0.39 on). This excerpt belongs to a sample that is enriched for the highest values.
Outcome label depends on PBM E-score relative to -0.06: at/above gives satisfied, below gives not satisfied.

Please review the entries below; each comes with its answer.
1. CCCTCCAG: not satisfied
2. AAGTCCGA: satisfied
3. AGTCCTGC: not satisfied
4. CACCCCGG: satisfied
5. GCGTCCGA: satisfied

Q: Please check the record AAACCCGA and state if its PBM E-score is at or above -0.06.
Ans: satisfied

Q: Repeat for the following sequence: ACCTCCTA
Ans: not satisfied

###

- ASSAY_TARGET: Ylr278c (UniProt Q05854)
- ASSAY_NOTES: PBM E-score (8-mer binding enrichment) (E-score (-0.5 to 0.5)); higher = stronger / more preferred TF binding
- CONDITIONS_USED: protein concentration: 200 nM; construct: GST-DNA-binding domain
In all, about 33,000 sequences were measured (“E-score (-0.5 to 0.5)”: median about -0.054, highest 2% from about 0.39 on). The sample holds the highest values, similar sequences and a random draw of the others, so the mix is not that of the screen.
Measured PBM E-score by item
The response must contain the number and no unit.

1) CTATAGAC: -0.167
2) GTTCCGGA: 0.45
3) ATTCCGGA: 0.46
4) ACCCGGAA: 0.394
5) CATGTTGA: -0.0612
6) ACGCCGTC: 0.276
7) ACCCGGTC: 0.202
8) AACAACAC: -0.0906
9) TCACGGAA: 0.324
10) ATGTTAGC: -0.0158

Q: What value of PBM E-score on Ylr278c (UniProt Q05854) does CGAACTAA have?
Ans: -0.0681

Q: Repeat for the following sequence: ACGCCGGC
Ans: 0.421

Q: Repeat for the following sequence: ACATTGCA
Ans: -0.0533

Q: Repeat for the following sequence: CCCGGGAC
Ans: 0.394

Q: Repeat for the following sequence: CCGGGGAC
Ans: 0.242

Q: Repeat for the following sequence: ACCCGGCA
Ans: 0.174

Q: Repeat for the following sequence: TAAGTGAA
Ans: -0.072

Q: Repeat for the following sequence: CGCCCAAC
Ans: 0.0317

Q: Repeat for the following sequence: CACAAAGA
Ans: -0.197

Q: Repeat for the following sequence: ACCCGGGC
Ans: 0.273

###

- ASSAY_TARGET: Ylr278c (UniProt Q05854)
- ASSAY_NOTES: PBM E-score (8-mer binding enrichment) (E-score (-0.5 to 0.5)); higher = stronger / more preferred TF binding
- CONDITIONS_USED: protein concentration: 200 nM; construct: GST-DNA-binding domain
Whole data set: some 33,000 sequences, median “E-score (-0.5 to 0.5)” near -0.054, cut for the highest 2% near 0.39. The sample as a whole holds a higher share of the highest values than the screen did.
Outcome label depends on PBM E-score relative to 0.04: at/above gives TRUE, below gives FALSE.

Please review the entries below; each comes with its answer.
1. CGTGGCCC: FALSE
2. CATTCCGC: TRUE
3. AATAGATA: FALSE
4. TCTCTACA: FALSE
5. CTAGCATC: FALSE
6. CACTCCGG: TRUE
7. CACTCCGA: TRUE
8. CACTCCGC: TRUE

Q: Please check the record AATTCCAA and state if its PBM E-score is at or above 0.04.
Ans: FALSE

Q: Repeat for the following sequence: CAAGATCC
Ans: TRUE

###

- ASSAY_TARGET: Ylr278c (UniProt Q05854)
- ASSAY_NOTES: PBM E-score (8-mer binding enrichment) (E-score (-0.5 to 0.5)); higher = stronger / more preferred TF binding
- CONDITIONS_USED: protein concentration: 200 nM; construct: GST-DNA-binding domain
The full ranking holds about 33,000 sequences; the median of “E-score (-0.5 to 0.5)” is about -0.054, and the highest 2% start at about 0.39. What follows is part of a selection rich in the highest values, with near analogues and random picks from the rest.
VALUE_TYPE: PBM E-score

Q: Fill blank: measured PBM E-score of the sequence CGCCGGCC is ____.
Ans: 0.367

Q: Repeat for the following sequence: AGTGCGGG
Ans: 0.258

Q: Repeat for the following sequence: GCGACGGA
Ans: 0.313

Q: Repeat for the following sequence: AAAGTCCT
Ans: 0.226

Q: Repeat for the following sequence: GAGCATTA
Ans: -0.111

Q: Repeat for the following sequence: ACCGAAGA
Ans: 0.183

Q: Repeat for the following sequence: ATTGATCC
Ans: 0.282

Q: Repeat for the following sequence: AGCGCAGG
Ans: 0.169

###

- ASSAY_TARGET: Ylr278c (UniProt Q05854)
- ASSAY_NOTES: PBM E-score (8-mer binding enrichment) (E-score (-0.5 to 0.5)); higher = stronger / more preferred TF binding
- CONDITIONS_USED: protein concentration: 200 nM; construct: GST-DNA-binding domain
Over roughly 33,000 sequences, “E-score (-0.5 to 0.5)” has its median near -0.054; the highest 2% begin near 0.39. The sample as a whole holds a higher share of the highest values than the screen did.
VALUE_TYPE: PBM E-score
The response must contain the number and no unit.

Solved entries:
1. GACCGGCA: 0.258
2. ATCTCGGA: 0.406
3. CTCTCGAA: -0.33
4. ATCTCGGG: 0.278

Q: Fill blank: measured PBM E-score of the sequence GTCTCGGA is ____.
Ans: 0.385

###

- ASSAY_TARGET: Ylr278c (UniProt Q05854)
- ASSAY_NOTES: PBM E-score (8-mer binding enrichment) (E-score (-0.5 to 0.5)); higher = stronger / more preferred TF binding
- CONDITIONS_USED: protein concentration: 200 nM; construct: GST-DNA-binding domain
Over roughly 33,000 sequences, “E-score (-0.5 to 0.5)” has its median near -0.054; the highest 2% begin near 0.39. What follows is part of a selection rich in the highest values, with near analogues and random picks from the rest.
Outcome label depends on PBM E-score relative to 0.2: at/above gives y, below gives n.

Please review the entries below; each comes with its answer.
1. ATTTAAAA: n
2. CGAGACCG: y
3. CGGACCCC: y
4. CGGACCGA: y
5. GTCTAAAC: n

Q: Please check the record CTCGGAGA and state if its PBM E-score is at or above 0.2.
Ans: y

Q: Repeat for the following sequence: TATCCACA
Ans: n

Q: Repeat for the following sequence: CTTGGAGA
Ans: n

Q: Repeat for the following sequence: ATCGGAGG
Ans: y

Q: Repeat for the following sequence: ATACGGAA
Ans: y

Q: Repeat for the following sequence: TAGCCACA
Ans: n

Q: Repeat for the following sequence: CTAGCAGA
Ans: n

Q: Repeat for the following sequence: GACAGGTA
Ans: n

Q: Repeat for the following sequence: GACGGTAA
Ans: n
